Tested on: HCV replicon in HUH-7 cells
EXPERIMENT NOTES: HCV replicon assay (FRET, confirmed in the luciferase reporter assay)
Type: cell-based
MEASUREMENT CONTEXT: Hepatitis C virus, 96 h, 4 days, class symbols
Below, each entry is listed with its recorded EC50.

### Prompt Please give the documented EC50 of "COc1cc2ccc3cc2cc1CCCCCCOC(=O)N[C@@H](C(C)(C)C)C(=O)N1C[C@@]3(OC)C[C@H]1C(=O)N[C@]1(C(=O)NS(=O)(=O)C2CC2)C[C@H]1C1CC1"
### Response 0.011 to 0.02 µM

### Prompt Please give the documented EC50 of "COc1cc2ccc3cc2cc1CCCC(C)(C)CCOC(=O)N[C@@H](C(C)(C)C)C(=O)N1C[C@@]3(OC)C[C@H]1C(=O)N[C@]1(C(=O)NS(=O)(=O)C2CC2)C[C@H]1C(F)F"
### Response 0.001 to 0.01 µM

### Prompt Please give the documented EC50 of "COc1cc2ccc3cc2cc1CCCC(C)(C)CCOC(=O)N[C@@H](C(C)(C)C)C(=O)N1C[C@@]3(OC)C[C@H]1C(=O)N[C@]1(C(=O)NS(=O)(=O)C2CC2)C[C@H]1C1CC1"
### Response 0.001 to 0.01 µM
